Reported koff values follow for various binders
- Study System: T1, full length human tau protein 2N4R (hT40) (human, UniProt P10636 1-758)
- T1 construct: recombinant; also called T441
- T1 sequence (P10636 other isoform, or with tags, fused parts or gaps limits assumed): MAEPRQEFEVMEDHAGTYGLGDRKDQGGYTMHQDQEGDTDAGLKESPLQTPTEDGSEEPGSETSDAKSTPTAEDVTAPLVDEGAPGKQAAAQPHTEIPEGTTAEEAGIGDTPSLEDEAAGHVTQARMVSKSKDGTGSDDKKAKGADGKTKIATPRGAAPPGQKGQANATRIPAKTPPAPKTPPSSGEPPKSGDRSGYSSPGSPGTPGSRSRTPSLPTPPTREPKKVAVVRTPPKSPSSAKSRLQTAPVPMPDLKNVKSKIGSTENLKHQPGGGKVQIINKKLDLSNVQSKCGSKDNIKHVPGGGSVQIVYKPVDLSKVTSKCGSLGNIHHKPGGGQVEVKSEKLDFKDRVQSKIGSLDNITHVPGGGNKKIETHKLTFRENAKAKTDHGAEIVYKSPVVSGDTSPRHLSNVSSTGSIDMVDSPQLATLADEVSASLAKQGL
- Assay Explanation: SPR, scAb captured, tau analyte
The answer is to be given in s⁻¹; state only the numeric part.

Solved cases below.
Which koff value belongs to S1G2 scAb (scFv, not shown: small tags and cut ends, scAb) scFv: QVQLQESGPSLVKPSQTLSLTCTVSGFSLTSNSVGWVRQAPGKAPEWVAGIDTDGEEGYNPALNSRLSITRDTSKSQVSLSLSSVTSEDTAVYYCGRSYRADGLAYGYVQAIDYWGPGLLVTVSSEGKSSGASGESKVDDQAVVTQPSSVSGSLGQRVSITCSGSFIGISSVGWFQQLPGSGLRTIIVASDGRPSGVPDRFSMSKSGNTATLTISSLQAEDEADYFCGSSDRTPYTGVFGSGTRLTVLG ? 0.00018

And 3aH6 scAb (scFv, not shown: small tags and cut ends, scAb) scFv: QVQLQESGPSLVKPSQTLSLTCTVSGFSLSSNGVGWVRQAPGKVPEWLGDISSVGKKYANPALKSRLSFTRDTSKSQVSLSLSSVTTEDTAVYYCVKCRDGGVTYGYDIDYWGPGLLVTASSEGKSSGASGESKVDDQAVVTQPSSVSGSLGQSVSITCSGSSGNVGYGDYVSWFQQFHGSAPKLLIYGATNLASGVPARFSGSRSGNTATLTISSLHAEDEADYYCASYDSSSGGVFGSGTRLTVLG ? 0.00987

And 3aD3 scAb (scFv, not shown: small tags and cut ends, scAb) scFv: QVQLQESGPSLVKPSQTLSLTCTVSGFSLTSNGVGWVRRAPGKVPEWVGDISSGGKVYGHPALKSRLSITRDTSKSQVSLSVSSVTSEDTAVYYCVRCRDGGVSYGYDSDYWGPGLLVTVSSEGKSSGASGESKVDDQAVVTQPSSVSKSLGQSVSITCSGSSSNVGYGDYVGWFQQVPGSAPKLLIYGVTERASGVPDRFSGSRSGNTATLTISSIQAEDEADYYCASYDDSSGGIFGSGTRLTVLG ? 0.0104

And 3bF4 scAb (scFv, not shown: small tags and cut ends, scAb) scFv: QVQLQESGPSLVKPSQTLSLTCTVSGFSLSSNGVGWVRQAPGKVPEWLGDISSVGKKYANPALKSRLSFTRDTSKSQVSLSLSSVTTEDTAVYYCVKCRDGGVTYGYDIDYWGPGLLVTVSSEGKSSGASGESKVDDQAVLTQPSSVSKSTGQTVSITCSGSSSNVGLRNYVTWFQQVPGSAPKLLIYGATSRASGIPDRFSGSRSGNTATLIISSLQAEDEADYYCASADTNDGGVFGSGTRLTVLG ? 0.0153

Note: attention shifts to another entry.
Which koff value belongs to CC7 scAb (scFv, not shown: small tags and cut ends, scAb) scFv: QVQLQESGPSLVKPSQTLSLTCTVSGFSLTSNAVIWVRQAPGKAPEWVALIDVDGDAAYDPALKSRLSITRDTSKSQVSLSLRSVTTEDTAVYYCARDYGSWGYVSDIDYWGPGLLVTVSSEGKSSGASGESKVDDRVVRTQPSSVSGSLGQRVSITCSGSYITGSSVGWFQQVPGSGLKTVIYDNNDRPSGVPDRFSGSKSGDTATLTISSLQAEDEADYYCASYDTSNIGLFGSGTRLTVLG ? 0.000366
